Listed below: 5-HT2A receptor inhibition % values for each entry.
TESTED_SYSTEM: 5-HT2A receptor (Homo sapiens, UniProt P28223)
Construct: expressed in transfected cells; host or cells: HEK-293
Sequence (P28223 whole entry): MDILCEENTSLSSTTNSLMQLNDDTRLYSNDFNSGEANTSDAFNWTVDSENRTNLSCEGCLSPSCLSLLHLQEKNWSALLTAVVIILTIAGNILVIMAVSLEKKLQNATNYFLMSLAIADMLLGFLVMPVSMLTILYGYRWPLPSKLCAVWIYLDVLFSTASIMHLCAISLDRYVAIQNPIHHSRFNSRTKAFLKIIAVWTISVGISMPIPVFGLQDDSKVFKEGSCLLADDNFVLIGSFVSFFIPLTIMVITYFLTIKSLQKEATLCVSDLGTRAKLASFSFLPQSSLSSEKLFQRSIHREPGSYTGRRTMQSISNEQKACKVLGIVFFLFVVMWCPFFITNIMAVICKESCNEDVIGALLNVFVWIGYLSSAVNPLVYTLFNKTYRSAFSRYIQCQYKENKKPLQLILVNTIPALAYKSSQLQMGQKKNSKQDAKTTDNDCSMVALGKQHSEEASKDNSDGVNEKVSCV
METHOD_DESCRIPTION: Radioligand binding affinity on 5-HT2A receptor ([3H]-Ketanserin); also: test concentration or dose not given here
PROTOCOL_CONDITIONS: 5-HT2A receptor protein expressed in HEK-293 cells
VALUE_TYPE: 5-HT2A receptor inhibition % (%)

>>> endpoint_value("CCCCc1cc2c(s1)C[C@H]1c3cc(O)c(OC)cc3CCN1C2")
53.34
>>> endpoint_value("COc1ccc(OC)c2c1C[C@H]1c3cc(C)sc3CCN1C2")
30.01
>>> endpoint_value("COc1cc2c(cc1O)[C@@H]1Cc3sc(CCCl)cc3CN1CC2")
34.81
>>> endpoint_value("COc1cc2c(cc1OC)CN1CCc3c([nH]c4ccccc34)[C@@H]1C2")
50.46
>>> endpoint_value("COc1c(N)ccc2c1CN1CCc3sccc3[C@@H]1C2")
74.25
>>> endpoint_value("COc1c(O)ccc2c1CN1CCc3sc(C)cc3[C@H]1C2")
44.24
>>> endpoint_value("COc1cc2c(cc1O)[C@@H]1Cc3sc(CC(C)C)cc3CN1CC2")
50.31
>>> endpoint_value("COc1ccc2c(c1OC)CN1CCc3sccc3[C@@H]1C2")
32.31
>>> endpoint_value("COc1c(NC(C)=O)ccc2c1CN1CCc3sccc3[C@@H]1C2")
46.59
>>> endpoint_value("CCCc1cc2c(s1)C[C@H]1c3cc(O)c(OC)cc3CCN1C2")
29.55
